Could you please report measured pIC50 for the items listed next?
# assayed-system: IRAK1 (Homo sapiens, UniProt P51617)
# Sequence (P51617 whole entry): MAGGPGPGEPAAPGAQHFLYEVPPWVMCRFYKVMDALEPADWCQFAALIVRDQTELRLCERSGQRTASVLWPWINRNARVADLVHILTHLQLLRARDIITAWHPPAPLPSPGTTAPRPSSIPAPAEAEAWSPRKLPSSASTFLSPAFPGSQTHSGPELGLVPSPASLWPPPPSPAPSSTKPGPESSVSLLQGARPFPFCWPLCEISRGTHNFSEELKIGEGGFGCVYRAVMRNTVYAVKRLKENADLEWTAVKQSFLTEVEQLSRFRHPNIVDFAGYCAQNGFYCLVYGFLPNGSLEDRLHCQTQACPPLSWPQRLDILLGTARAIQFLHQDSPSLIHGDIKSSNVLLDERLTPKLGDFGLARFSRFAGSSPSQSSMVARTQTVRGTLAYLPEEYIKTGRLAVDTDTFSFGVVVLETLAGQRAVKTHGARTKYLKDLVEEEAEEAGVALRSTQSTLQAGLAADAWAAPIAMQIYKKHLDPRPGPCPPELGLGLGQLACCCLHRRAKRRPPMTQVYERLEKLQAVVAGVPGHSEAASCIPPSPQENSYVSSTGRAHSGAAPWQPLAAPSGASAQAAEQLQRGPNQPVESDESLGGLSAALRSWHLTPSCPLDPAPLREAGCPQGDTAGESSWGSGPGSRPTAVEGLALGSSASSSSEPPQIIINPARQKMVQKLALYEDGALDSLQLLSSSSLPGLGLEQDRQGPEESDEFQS
# measurement-notes: RBC HotSpot Kinase Assay, IRAK1
# stated-conditions: HotSpot functional assay, isolated kinase enzyme, 33P-ATP
Answer as the number alone; pIC50 is minus log10 of concentration in mol/L.

response.value for COc1cc2ncc(-c3nc(N[C@H]4CNCC[C@@H]4F)c(F)cc3F)n2nc1C(C)(O)C(F)(F)F (single isomer, unassigned) [Compound 76a] (field: pIC50) = 6.24

Form field pIC50, entry COc1cc2ncc(-c3nc(N[C@@H]4CCCNC4)c(F)cc3F)n2nc1C1COC1 [Compound 72a] : 6.30

The measured pIC50 associated with COc1cc2ncc(-c3nc(N[C@@H]4CCCNC4)c(F)cc3F)n2nc1C1CCCC1 [Compound 17a] reads 8.15

Reported pIC50 of COc1cc2ncc(-c3ccc(F)c(N[C@H]4CNC[C@@H]4F)n3)n2nc1C1CC1 [Compound 46a] : 7.92

Query COc1cc2ncc(-c3nc(N[C@H]4CNC[C@@H]4F)c(F)cc3F)n2nc1C1CC(C)(C)C1 [Compound 8a] yields pIC50 of 6.72

Notebook: COc1cc2ncc(-c3nc(N[C@H]4CNC[C@@H]4F)ccc3F)n2nc1C1CC1 [Compound 45a] , pIC50 read as 7.43

So for COc1cc2ncc(-c3nc(N[C@H]4CNCC[C@@H]4F)c(F)cc3F)n2nc1C1CC(C)(C)C1 [Compound 9a] , the logged pIC50 turned out to be 7.13

Please fill in: pIC50 reported for COc1cc2ncc(-c3nc(N[C@H]4CNC[C@@H]4F)c(F)cc3F)n2nc1C1CC2(CCC2)C1 [Compound 12a] = 7.06

Entry under test: COc1cc2ncc(-c3nc(N[C@H]4CNC[C@@H]4F)c(F)cc3F)n2nc1N1CCCC1=O [Compound 24a] . Its pIC50 was 6.73

For record COc1cc2ncc(-c3cccc(N[C@H]4CNCC[C@@H]4F)n3)n2nc1N1CCCC1=O [Compound 26a] the listed pIC50 is 6.54

The compound listed as COc1cc2ncc(-c3ccc(F)c(N[C@H]4CNCC[C@@H]4F)n3)n2nc1C(C)(C)O [Compound 1a] shows pIC50 equal to 5.63

Note to self: pIC50 recorded for COc1cc2ncc(-c3nc(N[C@H]4CNC[C@@H]4F)c(F)cc3F)n2nc1C(C)(O)C(F)(F)F (single isomer, unassigned) [Compound 80a] was 5.81

Notebook: COc1cc2ncc(-c3nc(N[C@@H]4CCCNC4)c(F)cc3F)n2nc1C12CC(C1)C2 [Compound 65a] , pIC50 read as 7.74
